test system: OVCAR-5; experiment: NCI tumour cell line growth inhibition, 48 h
The source made the active and inactive calls. No stated cut-off is given here; in the data, active = GI50 up to about 1.1 µM and inactive = higher.
Observable: GI50

Example compounds with recorded GI50:
[[record]]
compound = "CC1=C(C)C(=O)C(C2=CC(=O)c3ccccc3C2=O)=C(C2=CC(=O)c3ccccc3C2=O)C1=O"
observable = "GI50"
result = "24.3 µM (inactive)"

[[record]]
compound = "NC(=O)C(=CNC(=S)Nc1ccccc1)C(N)=O"
observable = "GI50"
result = "> 100 µM (inactive)"

[[record]]
compound = "CC(=O)Nc1ccc(-c2nnc(SCC(=O)Nc3ccc(Cl)cc3Cl)o2)cc1"
observable = "GI50"
result = "> 100 µM (inactive)"

[[record]]
compound = "COc1cc(/C=C/c2ccc(OC(C)=O)cc2)cc(OC)c1OC"
observable = "GI50"
result = "18 µM (inactive)"

[[record]]
compound = "CC(C)(C)OP(=O)(OC(C)(C)C)C(O)c1ccc(/C=C(\\C#N)C(N)=O)cc1 (stereo not drawn)"
observable = "GI50"
result = "> 100 µM (inactive)"


Look up GI50 for the entries below, preserving their order.
1. Cc1cc(/N=C/c2c(CO)cnc(C)c2O)c(/N=C/c2c(CO)cnc(C)c2O)cc1C
2. C[C@@H](C1CC[C@H]2[C@@H]3[C@@H]4O[C@@H]4[C@@]4(O)CC=CC(=O)[C@]4(C)[C@H]3C[C@H](O)[C@]12C)[C@H]1C[C@]2(C)O[C@]2(C)C(=O)O1 (stereo partly drawn)
3. COc1ccc2c(c1)CC[C@@H]1C2CC[C@]2(C)C(=C=CP(=O)(O)O)CCC12 (stereo partly drawn)

A)
["> 100 µM (inactive)", "> 100 µM (inactive)", "> 100 µM (inactive)"]

###

test system: EKVX; experiment: NCI tumour cell line growth inhibition, 48 h
The source made the active and inactive calls. Cut-off read from the data, not from the text of the source: active = GI50 up to about 1.1 µM and inactive = higher.
Assignment: determine reported GI50 for the given molecules.

[[record]]
molecule = "O=[N+]([O-])C1(CO)COC2(OC1)c1ccccc1-c1ccccc12"
result = "> 100 µM (inactive)"

[[record]]
molecule = "CCOC(=O)c1ccc(NC(=O)O/N=C(/Cl)CC)cc1"
result = "16.1 µM (inactive)"

[[record]]
molecule = "O=S(=O)(c1ccccc1)c1cccc2c1NCCC2"
result = "58.3 µM (inactive)"

[[record]]
molecule = "Cc1nn(-c2ccccc2)c2c1C(c1cc3ccccc3nc1Cl)NC(=O)N2 (configuration not stated)"
result = "25.9 µM (inactive)"

[[record]]
molecule = "N#CC1(Cc2ccccc2)CCCCN1C(=O)c1ccccc1 (configuration not stated)"
result = "> 100 µM (inactive)"

[[record]]
molecule = "COc1cc(C(=O)CBr)c(OC)cc1C"
result = "> 100 µM (inactive)"

[[record]]
molecule = "CCCCCCCC(=O)OC(CBr)COC(=O)C(C)(C)C (configuration not stated)"
result = "> 100 µM (inactive)"

[[record]]
molecule = "COC1CC2CCC(C)[C@](O)(O2)C(=O)C(=O)N2CCCCC2C(=O)OC(C(C)CC2CCC(O)C(OC)C2)CC(=O)C(C)C=C(C)C(OC(=O)CN(C)C)C(OC)C(=O)C(C)CC(C)/C=C/C=C/C=C\\1C (some centres not stated)"
result = "< 0.01 µM (active)"

[[record]]
molecule = "CC(C)CCNC(=O)c1ccc(CNC(=O)/C=C/c2csc(-c3ccccc3)n2)cc1"
result = "> 100 µM (inactive)"

[[record]]
molecule = "COc1ccc(/C=C/C(=O)/C=C/c2ccc(OC)cc2OC)c(OC)c1"
result = "9.08 µM (inactive)"


Look up GI50 for the entries below, preserving their order.
1. Cc1cccc(C)c1NC(=O)C(=O)C(c1ccccc1Cl)S(=O)(=O)Cc1ccccc1Cl (configuration not stated)
2. O=C1OC2(CCCCC2)C(Oc2ccc(Cl)cc2)=C1F
3. CC(C)C(O)(C(C)C)C(C)C
4. CC1=NN(c2ccccc2)C(=O)/C1=C/c1ccc(O)cc1
5. CCOC(=O)CP(=S)(S)c1ccccc1 (configuration not stated)
6. CC(C)(Br)C(=O)N1CCN(C(c2ccccc2)c2ccccc2)CC1

A)
> 100 µM (inactive)
38.2 µM (inactive)
> 100 µM (inactive)
> 100 µM (inactive)
> 100 µM (inactive)
40.6 µM (inactive)

###

system: OVCAR-8; experiment: NCI tumour cell line growth inhibition, 48 h
Active and inactive are the calls of the source. No stated cut-off is given here; in the data, active = GI50 up to about 1.1 µM and inactive = higher.
Your reply should match one of these outcome classes. 1.0 for active, 0.0 for inactive

[[record]]
compound = "Cc1ccc(C(=O)Nc2ccc(CP(=O)(O)O)cc2)cc1NC(=O)Nc1cc(C(=O)Nc2ccc(CP(=O)(O)O)cc2)ccc1C"
label_value = 0.0

[[record]]
compound = "Cc1[nH]c(=O)nc(NCCNCCO)c1C(=O)Nc1c2ccccc2nc2ccccc12"
label_value = 0.0

[[record]]
compound = "NC(=O)COc1ccccc1"
label_value = 0.0

[[record]]
compound = "Cc1nn(-c2cc(Cl)ccc2[N+](=O)[O-])c(C)c1Cl"
label_value = 0.0

[[record]]
compound = "CCOC(=O)c1nnsc1NN=C(C)C"
label_value = 0.0

[[record]]
compound = "CC(N)Cc1ccc(F)cc1 (centres undefined)"
label_value = 0.0

[[record]]
compound = "CC[C@@]1(O)C(=O)OCc2c1cc1n(c2=O)Cc2cc3cc(OC)ccc3nc2-1"
label_value = 1.0

[[record]]
compound = "CCNC(=O)OCc1c(COC(=O)NCC)c(-c2ccc(Cl)c(Cl)c2)n2c1CCC2"
label_value = 0.0


Q) Name the outcome recorded for COc1cc2c3c4c1OCc1c5c(cc(c1-4)CC3[N+](C)(C)CC2)OCO5 (centres undefined) in the assay.
A) 0.0

Q) Name the outcome recorded for "C/C(=N\O)c1ccc(Nc2c3ccccc3nc3occc23)cc1" in the assay.
A) 1.0

Q) Name the outcome recorded for "COc1ccc(C(=O)/C=C2\C(=O)Nc3ccc(Br)cc32)cc1" in the assay.
A) 0.0

Q) Name the outcome recorded for Cc1ccc(S(=O)(=O)N/N=C2\CC3C4CCC3C2C4)cc1 (centres undefined) in the assay.
A) 0.0

Q) Name the outcome recorded for "CC(=O)Oc1ccc(CO)cc1OC(C)=O" in the assay.
A) 0.0

Q) Name the outcome recorded for C=CC[P@@]1(=O)O[C@H](c2ccccc2)C(C)N1C(C)C (some centres undefined) in the assay.
A) 0.0

Q) Name the outcome recorded for "CCOC(=O)c1[nH]c(COC(C)=O)c2c1CCCCCCCCCC2" in the assay.
A) 0.0

Q) Name the outcome recorded for C[C@]12CC(c3ccccc3O1)C(C(=O)Nc1nc(C34CC5CC(CC(C5)C3)C4)cs1)C(=O)N2 (some centres undefined) in the assay.
A) 0.0

Q) Name the outcome recorded for "CC1(C)OC[C@@]2([C@@H]3CC[C@@H](C3)C2(C)C)N1O" in the assay.
A) 0.0

Q) Name the outcome recorded for CC1(C)CCC[C@@]2(C)C1CC[C@H]1CC(O)C3(C)CCC12C3 (some centres undefined) in the assay.
A) 0.0

Q) Name the outcome recorded for CN(C)c1ccc(/C=N/CC2CCCN3CCCCC23)cc1 (centres undefined) in the assay.
A) 0.0

Q) Name the outcome recorded for "CSc1c(C#N)c(S)n(-c2ccc(Cl)cc2)c(=O)c1C#N" in the assay.
A) 0.0

Q) Name the outcome recorded for "O=C(NCc1ccccc1)c1c(O)nc2ccccc2c1O" in the assay.
A) 0.0

Q) Name the outcome recorded for "Cc1ccc(C(=O)O/N=C2/CCC/C2=C\c2ccccc2)cc1" in the assay.
A) 0.0

Q) Name the outcome recorded for Fc1ccc(C(OCCN2CCC3CCC(C2)N3CCCc2ccccc2)c2ccc(F)cc2)cc1 (centres undefined) in the assay.
A) 0.0

Q) Name the outcome recorded for COC1CC(CC2CCC(C)C(C(C)C(=O)O)O2)OC2(OC(C)(C3CCC(C)(C4OC(C5OC(O)(CO)C(C)CC5C)CC4C)O3)CC2C)C1C (centres undefined) in the assay.
A) 0.0

Q) Name the outcome recorded for "NCC[Se][Se]CCN" in the assay.
A) 0.0

Q) Name the outcome recorded for Cc1cn(C2CC(n3cc(Cn4ccc(=O)[nH]c4=O)nn3)C(CO)O2)c(=O)[nH]c1=O (centres undefined) in the assay.
A) 0.0

Q) Name the outcome recorded for "COc1cc(/C=C\c2ccccc2)cc(OC)c1OC" in the assay.
A) 0.0

Q) Name the outcome recorded for "OCC[N+]12CCCN1CCC2" in the assay.
A) 0.0

Q) Name the outcome recorded for "Clc1cc(OC23CC4CC(CC(C4)C2)C3)nc(Cl)n1" in the assay.
A) 0.0

Q) Name the outcome recorded for CC(C)C(Sc1nc(-c2ccccc2)c(-c2ccccc2)[nH]1)c1n[nH]c(=S)n1-c1ccccc1 (centres undefined) in the assay.
A) 0.0

Q) Name the outcome recorded for "O=C(O)CC[C@H](NC(=O)c1ccc(-n2nc3ccc(=O)cc-3[nH]c2=O)cc1)C(=O)O" in the assay.
A) 0.0

Q) Name the outcome recorded for COc1ccc(/C(=N/NC(N)=O)C(c2ccc(OC)cc2)C2C(=O)Oc3ccccc32)cc1 (centres undefined) in the assay.
A) 0.0
